B1: glmS ribozyme (parent)
chain: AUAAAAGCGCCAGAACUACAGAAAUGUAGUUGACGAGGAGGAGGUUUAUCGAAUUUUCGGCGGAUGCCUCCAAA

Variants of: B1
Assay: self-cleavage kobs at 10000 uM GlcN6P; higher = faster cleavage; RNA array
Settings: with glucosamine-6-phosphate
This sample holds only a part of the variants without activity.
Property: self-cleavage kobs at 10000 uM GlcN6P; scope: individual variants
Write it as a number; the unit s⁻¹ goes unstated.

Recorded self-cleavage kobs at 10000 uM GlcN6P, per entry:
Find the recorded self-cleavage kobs at 10000 uM GlcN6P belonging to C67G C71U and report it. 2.63e-05

Can you handle A12U G43A next? 0.000173

Queued: G29C U55C 0.00205

And for G44U C67U ? 0.00691

Now examine the next entry.
So what does the record say about self-cleavage kobs at 10000 uM GlcN6P for A14G G37U ? 2.02e-05

Value source: the supplement of paper PMC7125110
